Measured AC50, listed per entry for reference.
Assay system: hPK-M2 (Homo sapiens)
Sequence (P14618 whole entry): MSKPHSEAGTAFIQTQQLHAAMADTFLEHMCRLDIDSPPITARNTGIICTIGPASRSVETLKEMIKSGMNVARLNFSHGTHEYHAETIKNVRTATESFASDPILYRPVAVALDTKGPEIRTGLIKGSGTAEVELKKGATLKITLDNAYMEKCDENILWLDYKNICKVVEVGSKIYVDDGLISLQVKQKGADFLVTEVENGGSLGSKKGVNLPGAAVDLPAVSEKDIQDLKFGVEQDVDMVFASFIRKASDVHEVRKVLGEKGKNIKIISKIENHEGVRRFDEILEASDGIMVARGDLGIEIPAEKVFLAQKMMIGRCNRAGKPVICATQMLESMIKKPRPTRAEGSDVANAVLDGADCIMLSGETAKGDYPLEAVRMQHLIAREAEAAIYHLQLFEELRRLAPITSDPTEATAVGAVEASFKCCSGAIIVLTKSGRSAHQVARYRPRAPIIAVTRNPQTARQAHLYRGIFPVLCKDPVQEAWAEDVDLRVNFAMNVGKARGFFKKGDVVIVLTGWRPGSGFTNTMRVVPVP
Experiment notes: Luminescent pyruvate kinase-luciferase coupled assay (KinaseGlo)
Format: biochemical
Test conditions: luminescent pyruvate kinase-luciferase coupled assay (KinaseGlo), tables; read-out: hPK, M2 AC50
API: value field is a number in nM; no unit string.

// worked examples, AC50 included
CNc1cccc(S(=O)(=O)N2CCN(S(=O)(=O)c3ccc4c(c3)OCCO4)CC2)c1 | 290
COc1cc(F)c(S(=O)(=O)N2CCN(S(=O)(=O)c3cccc(NC(C)=O)c3)CC2)c(F)c1 | 1630
Cc1cc2c(s1)c1cnn(Cc3c(F)cccc3Cl)c(=O)c1n2C | 60

## Task Form field: reported AC50 of O=S(=O)(NCC1CN(S(=O)(=O)c2ccc3c(c2)OCCO3)C1)c1c(F)cccc1F
## Result 3050

## Task Given Cc1cc2c(s1)c1cnn(Cc3cccc(F)c3F)c(=O)c1n2C , state its recorded AC50.
## Result 215

## Task Value lookup for AC50; key = CC(C)c1cc2c(s1)c1cnn(Cc3ccccc3F)c(=O)c1n2C
## Result 142

## Task Query (compound): Cn1c2cc([S+](C)[O-])sc2c2cnn(Cc3ccccc3F)c(=O)c21 (centres unmarked) ; field requested: AC50
## Result 25

## Task Requested field: AC50. Item: C[C@@H]1CN(S(=O)(=O)c2ccc3c(c2)OCCO3)CCN1S(=O)(=O)c1c(F)cccc1F
## Result 9180
